# Tested target: T1, human myostatin (mature, recombinant; R&D Systems) (human, UniProt O14793 267-375)
# T1 sequence: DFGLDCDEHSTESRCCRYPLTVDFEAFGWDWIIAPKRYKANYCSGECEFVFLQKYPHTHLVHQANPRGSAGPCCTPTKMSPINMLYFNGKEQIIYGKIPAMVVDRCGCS
# Test name: cell-based or functional assay
# pSmad2 % inhibition at 10 nM values compiled below
All answers are understood in %, so give the number only.

Would you please look over these solved cases?
Binder	Reported property	Recorded value
3007_C09 (designed binder) MGVSDVPRDLEVVAATPTSLLISWSLPHRGVANYYRITYGETGGNSPVQEFTVPGRGVTATISGLKPGVDYTITVYAVTLTGANVIIYKPISINYRTEIDKPSQHHHHHH	pSmad2 % inhibition at 10 nM	80
3008_G01 (designed binder) MGVSDVPRDLEVVAATPTSLLISWSLPGPGHFHYYRITYGETGGNSPVQEFTVPGRGVTATISGLKPGVDYTITVYAVTVTANQPIIYKPISINYRTEIDKPSQHHHHHH	pSmad2 % inhibition at 10 nM	98
3008_G03 (designed binder) MGVSDVPRDLEVVAATPTSLLISWSLPHPGLGHYYRITYGETGGNSPVQEFTVPGRGVTATISGLKPGVDYTITVYAVTITPETIIVYKPISINYRTEIDKPSQHHHHHH	pSmad2 % inhibition at 10 nM	91
3008_B08 (designed binder) MGVSDVPRDLEVVAATPTSLLISWSLPHAGDAHYYRITYGETGGNSPVQEFTVPGRGVTATISGLKPGVDYTITVYAVTVTRAGFYRYKPISINYRTEIDKPSQHHHHHH	pSmad2 % inhibition at 10 nM	90
3008_F01 (designed binder) MGVSDVPRDLEVVAATPTSLLISWSLPRQGLANYYRITYGETGGNSPVQEFTVPGRGVTATISGLKPGVDYTITVYAVTVTAAGVIIYKPISINYRTEIDKPSQHHHHHH	pSmad2 % inhibition at 10 nM	86

Consider the binder 3007_C10 (designed binder) MGVSDVPRDLEVVAATPTSLLISWSLPSSGVAHYYRITYGETGGNSPVQEFTVPGRGVTATISGLKPGVDYTITVYAVTVTNTGVIIYKPISINYRTEIDKPSQHHHHHH and give its recorded pSmad2 % inhibition at 10 nM.
76

Consider the binder 3008_A03 (designed binder) MGVSDVPRDLEVVAATPTSLLISWSLPHHGFGHYYRITYGETGGNSPVQEFTVPGRGVTATISGLKPGVDYTITVYAVTVTATGIIIYKPISINYRTEIDKPSQHHHHHH and give its recorded pSmad2 % inhibition at 10 nM.
87

Consider the binder 3008_D04 (designed binder) MGVSDVPRDLEVVAATPTSLLISWSLPHNGVAHYYRITYGETGGNSPVQEFTVPGRGVTATISGLKPGVDYTITVYAVTVTREEVISYKPISINYRTEIDKPSQHHHHHH and give its recorded pSmad2 % inhibition at 10 nM.
92

Consider the binder 3007_B08 (designed binder) MGVSDVPRDLEVVAATPTSLLISWSLPTPGLAHYYRITYGETGGNSPVQEFTVPGRGVTATISGLKPGVDYTITVYAVTVTHHGVIGYKPISINYRTEIDKPSQHHHHHH and give its recorded pSmad2 % inhibition at 10 nM.
97

Consider the binder 3006_A10 (designed binder) MGVSDVPRDLEVVAATPTSLLISWDAPGGLARYYRITYGETGGNSPVQEFTVIGRGSTATISGLKPGVDYTITVYAVTIDRDGVNHFAPISINYRTEIDKPSQHHHHHH and give its recorded pSmad2 % inhibition at 10 nM.
51
